- System Under Test: Acetylcholinesterase (Electrophorus electricus)
- Test Conditions: at 2 mg/mL
- Description: Inhibition of electric eel AChE at 2 mg/ml by Ellman's method
Exercise: state measured inhibition for each of the molecules provided.
Provide only the numeric value, understood in %.

Entry CN1CCc2cc3c(c4c2[C@H]1Cc1ccccc1-4)OCO3 , inhibition reported as 34.2

inhibition reported for this molecule C/C=C1\C[C@@H](C)[C@](O)(CO)C(=O)OCC2=CCN3CC[C@@H](OC1=O)[C@@H]23 : 4.15

get_value(item= COc1cc(-c2oc3cc(O)cc(O)c3c(=O)c2OC2O[C@H](CO[C@@H]3O[C@@H](C)[C@H](O)[C@@H](O)[C@H]3O)[C@@H](O)[C@H](O)[C@H]2O)ccc1O (some centres undefined) , readout=inhibition) returns 24.8

Record summary for COC1=CC(=O)O[C@@H](/C=C/c2ccc3c(c2)OCO3)C1 : reported inhibition = -4.34

inhibition for C[C@H]1O[C@@H](Oc2c(-c3cc(O)c(O)c(O)c3)oc3cc(O)cc(O)c3c2=O)[C@@H](O)[C@@H](O)[C@@H]1O is 20.9

Given item CC(=O)N[C@H]1[C@@H](O[C@@H]2O[C@H](C[C@@H](O)[C@@H]3O[C@H](n4ccc(=O)[nH]c4=O)[C@@H](O)[C@H]3O)[C@H](O)[C@H](O)[C@H]2NC(=O)/C=C/CCCCCCCCCCC(C)C)O[C@H](CO)[C@@H](O)[C@@H]1O , the value recorded as its inhibition is 14.2

get_value(item= Cc1cc(O)c2c(c1)C(=O)c1cc(O)cc(O)c1C2=O , readout=inhibition) returns 24.3

Note to self: inhibition recorded for CO[C@H](C)[C@](O)(C(=O)OCC1=CCN2CC[C@H](O)[C@@H]12)C(C)C was 21.3

Looking up CCC12C=CCN3CC[C@@]4(c5ccc(OC)cc5N(C)[C@H]4[C@@](O)(C(=O)OC)[C@@H]1OC(C)=O)[C@@H]32 (some centres undefined) , I see its inhibition listed as 2.49

The molecule listed as COc1cc(=O)oc(/C=C/C=C/C=C/C(C)=C/[C@@]2(C)O[C@H](C)[C@](C)(O)[C@H]2O)c1C has a reported inhibition of 27.1

Quick note, inhibition for COc1cc(-c2oc3cc(O)cc(O)c3c(=O)c2OC2O[C@H](CO)[C@@H](O)[C@H](O)[C@H]2O)cc(OC)c1O (some centres undefined) landed at 3.25

// c1ccc2c(Cc3c[nH]c4ccccc34)c[nH]c2c1 : inhibition value = 4.61

Sure, the documented inhibition for CC(C)[C@@]1(O)[C@@H](OC(=O)c2cc[nH]c2)[C@@]2(O)[C@]3(C)C[C@@]4(O)O[C@@]5([C@H](O)[C@@H](C)CC[C@]35O)[C@@]2(O)[C@@]41C is 21.7

Entry Nc1ncnc2c1ccn2[C@@H]1O[C@H](CO)[C@@H](O)[C@H]1O — recorded inhibition = 4.48

Kindly note the recorded inhibition for CC1=CC(=O)c2c(O)cccc2C1=O , which is 31.8

inhibition recorded for this molecule, CC1=C(/C=C/C(C)=C/C=C/C(C)=C\C(=O)O)C(C)(C)CCC1 , is 11.5

So for C=CCc1ccc(O)c(-c2ccc(O)c(CC=C)c2)c1 , the logged inhibition turned out to be -3.48

Entry C[C@]1(C(=O)O)CCC[C@]2(C)c3cc(O)ccc3CC[C@@H]12 ; inhibition = -4.47

Field inhibition (entry Cc1nccc2c1[nH]c1ccccc12 ) reads 22.2

Record COc1c(O)cc2c(c1O)[C@@H]1O[C@H](CO)[C@@H](O)[C@H](O)[C@H]1OC2=O . Reported inhibition: 7.33

Lab note: measured inhibition of COc1ccc2cc1Oc1ccc(cc1)C[C@H]1c3cc(c(OC)cc3CCN1C)Oc1c(OC)c(OC)cc3c1[C@H](C2)N(C)CC3 was 15.5

Summary for this molecule, O=C1C[C@@H](c2ccc(O)cc2)Oc2cc(O[C@@H]3O[C@H](CO)[C@@H](O)[C@H](O)[C@H]3O)cc(O)c21 : inhibition is 18.7

Entry COc1ccc2c(c1)[nH]c1c(C)nccc12 ; inhibition = 50.9

// inhibition lookup, molecule = O=C1/C(=C/c2ccc(O)c(O)c2)Oc2c1ccc(O[C@@H]1O[C@H](CO)[C@@H](O)[C@H](O)[C@H]1O)c2O , result: 22.4

// sample CN1CCC[C@H]1c1cccnc1 , its inhibition was 15.6

COc1cc([C@@H]2c3cc4c(cc3[C@@H](O[C@@H]3O[C@@H]5CO[C@@H](C)O[C@H]5[C@H](O)[C@H]3O)[C@H]3COC(=O)[C@H]23)OCO4)cc(OC)c1O has a reported inhibition of -9.19

Form field inhibition, entry Cn1cnc2c1c(=O)[nH]c(=O)n2C : 39.4

Query COc1ccc(C(=O)OC2C[C@H]3CC[C@H](C2)N3C)cc1OC (some centres undefined) yields inhibition of 49.5

Per the record, C=C1C(=O)[C@]23[C@H](CC[C@@H]1[C@@H]2O)[C@]12CO[C@@]3(O)[C@H](O)[C@H]1C(C)(C)CC[C@@H]2O has inhibition of -3.57

For reference, reported inhibition for O=C(O)/C=C/c1ccc(O)c(O)c1 stands at 2.2

The measured inhibition associated with C[C@H]1CC[C@@]2(OC1)O[C@H]1C[C@H]3[C@@H]4CC[C@@H]5C[C@@H](O)CC[C@]5(C)[C@H]4CC[C@]3(C)[C@H]1[C@@H]2C reads -3.09

Per the records, this molecule ( COc1cc(C(=O)O[C@H]2C[C@@H]3CC[C@]2(C)C3(C)C)ccc1O ) has inhibition equal to 25.2

Input COC(=O)[C@H]1[C@H]2C[C@H]3c4[nH]c5ccccc5c4CCN3C[C@H]2CC[C@@H]1O.Cl [RAUWOLSCINE HYDROCHLORIDE] . Output inhibition: 12.4

Summary for this molecule, C=C(C)[C@H]1Cc2c(ccc3c2O[C@@H]2COc4cc(OC)c(OC)cc4[C@@H]2C3=O)O1 : inhibition is 16.4
